The measured values listed here are drawn from PubChem BioAssay (NCI).

test system: MALME-3M melanoma; experiment: NCI tumour cell line growth inhibition, 48 h; in the data active means GI50 below about 0.43 µM; inactive means the rest
Please answer using one outcome listed in 1 (yes) (active), 0 (no) (inactive)

Enquiry: Returns: the outcome recorded for O=C(Oc1cccc2cccnc12)c1cc2c(cc1Cl)SC(N(c1ccc(F)cc1)S(=O)(=O)c1ccc(Br)s1)=NS2(=O)=O in this assay.
Return: 0 (no)

Enquiry: Returns: the outcome recorded for COC[C@@H](N=C1NC(=O)/C(=C/c2ccc3ncccc3c2)S1)c1ccccc1 in this assay.
Return: 0 (no)

Enquiry: Returns: the outcome recorded for CCN1C/C(=C\c2cc(OC)c(OC)cc2OC)C(=O)/C(=C/c2cc(OC)c(OC)cc2OC)C1 in this assay.
Return: 0 (no)

Enquiry: Returns: the outcome recorded for CC(C)(C)c1ccc(S(=O)(=O)Oc2ccc3c4c(c(=O)oc3c2)CCCCC4)cc1 in this assay.
Return: 0 (no)

Enquiry: Returns: the outcome recorded for CCN(CCCN(C)C)Cc1cc(I)cc(C)c1O in this assay.
Return: 0 (no)

Enquiry: Returns: the outcome recorded for CCCCCCCCCCCCOC1C(CNC(=O)C2OC3OC(C)(C)OC3C2NC(=O)Nc2ccc(CC(=O)OC)cc2)OC2OC(C)(C)OC21 (centres undefined) in this assay.
Return: 0 (no)

Enquiry: Returns: the outcome recorded for NS(=O)(=O)c1ccc(Nc2cc(-c3cccc(O)c3)[nH]n2)cc1 in this assay.
Return: 0 (no)

Enquiry: Returns: the outcome recorded for Cc1cccc(N(C)C(=O)[C@@H]2[C@H](O)CCN2c2nc(C)cc(C(F)(F)F)c2C#N)c1 in this assay.
Return: 0 (no)

Enquiry: Returns: the outcome recorded for Cc1cc(O)c(=O)cc2c1C[C@H]1CC(C)(C)/C=C/C[C@]3(C)Oc4cc(=O)c(O)cc(C)c4C[C@H]3C[C@H](O)[C@@]1(C)O2 in this assay.
Return: 1 (yes)

* * *

system: T-47D breast; test: NCI tumour cell line growth inhibition, 48 h
Please go through the items and note down their TGI.

Enquiry: Quick check: TGI on T-47D breast, item Nc1c(C(=O)O)nnc2cc(Cl)c(Cl)cc12 ?
Return: > 100 µM

Enquiry: Quick check: TGI on T-47D breast, item O=C1/C(=C\Oc2ccc(F)cc2)N2CCC1CC2 ?
Return: > 100 µM

Enquiry: Quick check: TGI on T-47D breast, item CC1=CC(=O)C2=C(C)CCC3C(C)C(=O)OC3C12 (stereo not given) ?
Return: > 100 µM

Enquiry: Quick check: TGI on T-47D breast, item O=C(O)CCCC(=O)Nn1c(Cc2ccc(Cl)cc2)n[nH]c1=O ?
Return: > 100 µM

Enquiry: Quick check: TGI on T-47D breast, item O=c1c2c(=NCCN3CCCC3)cc3c(=O)n(CCCN4CCOCC4)c(=O)c4c(-c5ccc(CN6CCCC6)cc5)cc(c(O)n1CCCN1CCOCC1)c2c4-3 ?
Return: 0.897 µM

* * *

tested on: SF-539 CNS; assay: NCI tumour cell line growth inhibition, 48 h; in the data active = GI50 below about 0.43 µM; inactive = the rest
Please answer using one outcome listed in 1 (yes) for active, 0 (no) for inactive

Enquiry: Returns: the outcome recorded for C=C1CC[C@@H]2[C@](C)(COC(C)=O)[C@H](OC(C)=O)CC[C@@]2(C)[C@@H]1CC(Nc1ccc(S(=O)(=O)NC(C)=O)cc1)C1=CCOC1=O (stereo partly drawn) in this assay.
Return: 0 (no)

Enquiry: Returns: the outcome recorded for O=C(Oc1cccc2cccnc12)c1cc2c(cc1Cl)SC(N(c1ccc(F)cc1)S(=O)(=O)c1ccc(Br)s1)=NS2(=O)=O in this assay.
Return: 0 (no)

Enquiry: Returns: the outcome recorded for CCN(CCCN(C)C)Cc1cc(I)cc(C)c1O in this assay.
Return: 0 (no)

Enquiry: Returns: the outcome recorded for CCN1C(=S)N(c2ccccc2)C2NC(=S)N(/N=C/C=C/c3ccccc3OC)C21 (stereo not drawn) in this assay.
Return: 1 (yes)

Enquiry: Returns: the outcome recorded for COc1cc(/C=C\c2cc(OC)c(OC)c(OC)c2)cc(N/C=C\C(=O)c2ccc(OC(F)(F)F)cc2)c1OC in this assay.
Return: 0 (no)

Enquiry: Returns: the outcome recorded for CCN(CC)c1ccc(/C=N/NC(=O)CSc2nc3ccccc3c(=O)n2CCc2ccc(S(N)(=O)=O)cc2)c(O)c1 in this assay.
Return: 0 (no)

Enquiry: Returns: the outcome recorded for O=C(CC(Cl)=C(Cl)Cl)Nc1ccccc1 in this assay.
Return: 0 (no)

Enquiry: Returns: the outcome recorded for COc1ccc(/C=C/C(=O)c2cc(OC)c(OC)c(OC)c2)cc1OCC(=O)Nc1nc2ccc(OC(F)(F)F)cc2s1 in this assay.
Return: 1 (yes)

* * *

tested on: NCI-H460 lung
Please answer using one outcome listed in active, inactive

Enquiry: Returns: the outcome recorded for O=S(=O)(NCCCNc1nccc(-c2c(-c3ccc(O)cc3)nc3sccn23)n1)c1ccc(F)cc1 in this assay.
Return: inactive

Enquiry: Returns: the outcome recorded for CC(=O)c1ccc2c(c1)c1cc(C(C)=O)ccc1n2CCNC(C)C in this assay.
Return: active

Enquiry: Returns: the outcome recorded for C/C(=N\NC(=S)N1CCCCC1)c1ccccn1 in this assay.
Return: active

Enquiry: Returns: the outcome recorded for O=c1[nH]c2ccccc2c2ccccc12 in this assay.
Return: inactive

Enquiry: Returns: the outcome recorded for CC(C)(C)c1ccc(S(=O)(=O)Oc2ccc3c4c(c(=O)oc3c2)CCCCC4)cc1 in this assay.
Return: inactive

Enquiry: Returns: the outcome recorded for CCN(CC)c1ccc(/C=N/NC(=O)CSc2nc3ccccc3c(=O)n2CCc2ccc(S(N)(=O)=O)cc2)c(O)c1 in this assay.
Return: inactive

Enquiry: Returns: the outcome recorded for CCSCC1CC(O)(c2ccccc2)CC(c2ccc(F)cc2)O1 (stereo not drawn) in this assay.
Return: inactive

Enquiry: Returns: the outcome recorded for C=C1CC[C@@H]2[C@](C)(COC(C)=O)[C@H](OC(C)=O)CC[C@@]2(C)[C@@H]1CC(Nc1ccc(S(=O)(=O)NC(C)=O)cc1)C1=CCOC1=O (stereo partly drawn) in this assay.
Return: inactive

Enquiry: Returns: the outcome recorded for CC(=O)Nc1ccc2c(c1)C(c1ccccc1Cl)=Nc1c(n[nH]c1C)N2 in this assay.
Return: inactive

Enquiry: Returns: the outcome recorded for O=C(CC(Cl)=C(Cl)Cl)Nc1ccccc1 in this assay.
Return: inactive

Enquiry: Returns: the outcome recorded for CCN(Cc1ccc(C)cc1)c1ccc(CO)c(Cl)c1 in this assay.
Return: active

Enquiry: Returns: the outcome recorded for CCOC(=O)/C(=C/N1CCN(C(=O)c2ccco2)C1=S)C(=O)c1ccccc1 in this assay.
Return: inactive

Enquiry: Returns: the outcome recorded for COc1ccc2c(c1)/C(=C\c1c(-c3cc(OC)ccc3OC)nc3sc(C)cn13)C(=O)N2C in this assay.
Return: inactive

Enquiry: Returns: the outcome recorded for COC[C@@H](N=C1NC(=O)/C(=C/c2ccc3ncccc3c2)S1)c1ccccc1 in this assay.
Return: inactive

Enquiry: Returns: the outcome recorded for Fc1cc2[nH]ncc2c2c3c(c(-c4cn[nH]c4C(F)(F)F)nc12)CCCC3 in this assay.
Return: inactive

Enquiry: Returns: the outcome recorded for COc1ccc(C(c2cc(OC)c(OC)c(OC)c2)n2ccnc2)cc1O (stereo not drawn) in this assay.
Return: active

Enquiry: Returns: the outcome recorded for COc1cc(Nc2nc3cc(N)cc(N)c3nc2-c2ccccc2)cc(OC)c1OC in this assay.
Return: inactive

Enquiry: Returns: the outcome recorded for COc1cc(/C=C\c2cc(OC)c(OC)c(OC)c2)cc(N/C=C\C(=O)c2ccc(OC(F)(F)F)cc2)c1OC in this assay.
Return: inactive

* * *

test system: SK-MEL-28 melanoma; test: NCI tumour cell line growth inhibition, 48 h
property_name: TGI

Enquiry: Quick one: TGI for COc1ccccc1NC(=S)NN=C(C)c1cccc(C(C)=NNC(=S)Nc2ccccc2OC)n1 ?
Return: > 100 µM

Enquiry: Quick one: TGI for CCCNC(=S)/N=C/c1c(O)cc(C)oc1=O ?
Return: > 100 µM

Enquiry: Quick one: TGI for C=CCN(c1cc(OCc2ccccc2)c2[nH]cc(C)c2c1)S(C)(=O)=O ?
Return: > 100 µM

Enquiry: Quick one: TGI for COc1ccc(C2=N[C@@H](Cc3ccccc3)C(=O)Nc3ccsc32)cc1 ?
Return: 24.5 µM

Enquiry: Quick one: TGI for C=C1C(=O)O[C@H]2C/C(C)=C/CC[C@@]3(C)O[C@](C)(CC[C@@H]3I)[C@@H](I)C[C@@H]12 ?
Return: 14.1 µM

Enquiry: Quick one: TGI for CC(=O)Nc1ccc(NCC(=O)Nn2cnc3ccc(S(=O)(=O)Nc4ccc(NC(C)=O)cc4)cc3c2=O)cc1 ?
Return: > 100 µM

Enquiry: Quick one: TGI for NC(Cc1ccc(OCc2ccccc2)cn1)C(=O)O (stereo not given) ?
Return: > 100 µM

Enquiry: Quick one: TGI for C=C=C(CC1CCCCC1=O)S(=O)(=O)c1ccccc1 (stereo not given) ?
Return: > 10 µM

Enquiry: Quick one: TGI for O=c1[nH]c2ccccc2c(=O)n1/N=C/c1ccc(O)cc1 ?
Return: > 100 µM

Enquiry: Quick one: TGI for CCOC(=O)/C(=C/N1CCN(C(=O)c2ccco2)C1=S)C(=O)c1ccccc1 ?
Return: > 50 µM
